- SYSTEM_UNDER_TEST: T1, human ferroportin (SLC40A1) fused in frame with GFP, stably expressed in HEK293 cells (human, UniProt Q9NP59 1-571)
- T1 sequence (looked up): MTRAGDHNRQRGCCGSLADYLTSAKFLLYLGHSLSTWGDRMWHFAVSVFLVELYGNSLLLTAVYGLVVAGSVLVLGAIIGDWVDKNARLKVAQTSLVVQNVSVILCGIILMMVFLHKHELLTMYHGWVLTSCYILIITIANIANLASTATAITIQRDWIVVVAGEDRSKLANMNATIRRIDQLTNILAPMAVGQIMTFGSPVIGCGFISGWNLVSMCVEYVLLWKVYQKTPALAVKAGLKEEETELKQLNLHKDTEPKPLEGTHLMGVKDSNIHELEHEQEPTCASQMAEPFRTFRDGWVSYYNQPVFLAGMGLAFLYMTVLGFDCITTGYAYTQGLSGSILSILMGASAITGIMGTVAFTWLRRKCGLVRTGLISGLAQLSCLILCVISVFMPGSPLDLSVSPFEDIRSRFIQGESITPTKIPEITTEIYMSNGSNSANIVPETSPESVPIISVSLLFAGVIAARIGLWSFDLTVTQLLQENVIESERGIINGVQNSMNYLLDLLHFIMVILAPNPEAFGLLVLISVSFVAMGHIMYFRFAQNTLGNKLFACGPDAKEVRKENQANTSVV
- ASSAY_PROTOCOL: cell-based or functional assay
Side chains are listed from the residue outwards. * marks the point of attachment. Palmitoyl = CCCCCCCCCCCCCCCC(=O)*; Isovaleryl = CC(C)CC(=O)*; dapa = not defined here
ENDPOINT_NAME: Potency EC50 (nM)

H-DTAFPCIIF-NH2 [Compound 283]    739
Isovaleryl-ATHFPCIKFGPRSKGWVCK-NH2 (not fully specified (bridges); cysteine pairing not given here) [Compound 234]    60
DTHFPCIKFKPRSKGWVC (N-terminal isovaleric acid; K10(lauric acid); C-terminal NH2) [Compound 248]    10

I: DTHFPCIKFKPHSKECK (not fully specified; N-terminal isovaleric acid; K10(isoglu-Palm); C-terminal NH2) [Compound 358]
II: DTHFPCIKFEPRSKGCKK (not fully specified; N-terminal isovaleric acid; K18(isoglu-Palm); C-terminal NH2) [Compound 224]
III: Isovaleryl-DTHFPCIKFEPK([dapa-Palmitoyl])SKGCK-NH2 (not fully specified (bridges); cysteine pairing not given here; reading uncertain) [Compound 227]
IV: Isovaleryl-DTHFPCIKAGPRSKGWVCK-NH2 (not fully specified (bridges); cysteine pairing not given here) [Compound 237]
# desc sort on Potency EC50 across 4 binders Would you mind listing the labels in the order asked for?
IV, III, I, II

Cited source: patent US20250340608A1
